- System: Chordin-like protein 2 (CHRDL2)
- measurementNotes: CHRDL2 small-molecule binders, primary screen, biochemical, small-molecule microarray, 635 nm fluorescence (AID 1126);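 note: printed compound slides probed with Chrdl2 protein at 4 µg/mL for 1 h at 4 C; score merges 667 nm emission intensity with signal to noise over three replicate slides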
- appliedConditions: small-molecule microarray binding, fluorescence 635 nm; higher = more signal
The entries below come with measured composite z-score values attached.
Give only the figure.

Would you please look over these solved cases?
molecule	readoutType	testValue
C[N+](C)(C)CCCC[C@@H]1NC(=O)[C@H]2C[C@@H](C(=O)NCCCCCN)[C@@H](c3ccc(O)cc3)N2C1=O	composite z-score	0.444
C=CCNC(=O)[C@H]1[C@@H]2C(=O)O[C@@H](c3ccccc3)[C@@H](c3ccccc3)N2[C@@H](c2ccc(OCCO)cc2)[C@]12C(=O)Nc1ccc(C#Cc3ccc(OC)cc3)cc12	composite z-score	0.581
O=C1N(Cc2ccccc2)Cc2ccccc2C[C@@]12COC(c1ccc(OCCCO)cc1)=N2	composite z-score	0.303

Looking for the measured composite z-score of COc1cc2c(cc1O)C(C)N(Cc1sc3ccccc3c1Cl)CC2 (centres undefined) , can you help?
-1.9

###

- measurementNotes: splicing luciferase reporter signal modulators, primary screen, spliceosome inhibition project, cell-based, HEK293, splice +/- reporter (AID 1101);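 note: HEK293 cells carrying a splicing-competent luciferase reporter gene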
- appliedConditions: luminescence, 24 h, higher = more signal, called active from +8 up or from −8 down
Criterion met means recorded z-score is 0.2 or above; Criterion not met means it is below 0.2.

Examples with answers:
compound	groupLabel
C=CC[C@]1(C(=O)NCC(O)CO)N=C(c2ccc(OCCCO)cc2)O[C@H]1c1ccccc1CN=[N+]=[N-] (some centres not stated)	Criterion met
O=C1O[C@@H](c2ccccc2)[C@@H](c2ccccc2)N2[C@@H](c3ccccc3OCCO)[C@]3(C(=O)Nc4ccc(C#CC5(O)CCCCCC5)cc43)[C@@H](C(=O)N3CCCCCCC3)[C@H]12	Criterion not met
O=C1OCC=C[C@H]2OC34C=CCN(Cn5nnc6ccccc65)C(=O)[C@H]3N(CCO)C(=O)[C@@H]4[C@@H]12 (some centres not stated)	Criterion met

Would you say C#CCN(C(=O)OC(C)(C)C)[C@H](CO)c1ccccc1 shows z-score at minimum 0.2?
Criterion met

Then CCCC=C(CCC)[C@@H](NC(=O)c1ccc(C(=O)OC)cc1)c1ccc(C(=O)OC)cc1 ?
Criterion not met

Same question for CN1C(=O)C2CC=C(C3=CCO[C@@H]3[C@H]3CCCN3S(=O)(=O)c3ccccc3[N+](=O)[O-])CC2C1=O (some centres not stated) please.
Criterion not met

Moving on to [N-]=[N+]=NCc1ccccc1C[C@@]1(C(=O)NCCN2CCOCC2)N=C(c2ccc(OCCCO)cc2)O[C@@H]1c1ccccc1
Criterion met

###

Catalogue of composite z-score readings, one per entry.
- measurementNotes: small-molecule binders of probe aNOTCH3, primary screen, biochemical, small-molecule microarray, 635/667 nm fluorescence (AID 1120);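 note: probe is a biotin-tagged antibody raised against NOTCH3 rather than NOTCH3 protein; score merges spot fluorescence near 667 nm with spot signal to noise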
- appliedConditions: higher = more signal
Just the number, please, no unit after it.

Worked cases, composite z-score given:
compound	testValue
CC1C2C(CCCO)=CC(C3C(=O)N(C)C(=O)C23)N1Cc1cccc(OC(F)(F)F)c1 (stereo not drawn)	0.126
CN(C)CCCC[C@@H]1NC(=O)[C@H]2C[C@@H](C(=O)NCCCCCCNC(=O)CS)[C@@H](c3cccc(OCCO)c3)N2C1=O	-0.195

Consider now this further compound.
Look at this compound and give its reported composite z-score. COCCOC(=O)N1C(=O)[C@@]2(c3cc(C#CC4=CCCCC4)ccc31)[C@H](c1ccc(O)cc1)N1[C@H](c3ccccc3)[C@H](c3ccccc3)OC(=O)[C@H]1[C@@H]2C(=O)N1CCc2cc(OC)c(OC)cc2C1
-0.0014

###

- Test system: wheat germ agglutinin (Triticum aestivum), Alexa647-labelled
- measurementNotes: wheat germ agglutinin binders on compound microarrays, profiling panel, artefact control for SMM control-protein annotation, biochemical, small-molecule microarray, 635/667 nm fluorescence (AID 1140);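 note: score merges 667 nm feature emission with signal to noise over triplicate slides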
- appliedConditions: WGA-A647 binding, 635 nm fluorescence, higher = more signal
# Lookup of reported composite z-score keyed by entry

inputSmiles	composite z-score
COC(=O)C(CC#Cc1ccc2c(c1)[C@]1(C(=O)N2)[C@H](c2ccc(OCCO)cc2)N2[C@H](c3ccccc3)[C@H](c3ccccc3)OC(=O)[C@H]2[C@@H]1C(N)=O)C(=O)OC	0.397
[N-]=[N+]=NCc1ccccc1[C@H]1OC(c2ccc(OCCCO)cc2)=N[C@@]1(CCS(=O)(=O)c1ccccc1)C(=O)NCCN1CCOCC1	0.57
O=C1O[C@@H](c2ccccc2)[C@@H](c2ccccc2)N2[C@@H](c3ccc(OCCO)cc3)[C@]3(C(=O)Nc4ccc(C#CC5=CCCCC5)cc43)[C@@H](C(=O)Nc3nc4ccccc4s3)[C@H]12	0.453

Consider the compound C=CCNC(=O)[C@H]1[C@@H]2C(=O)O[C@@H](c3ccccc3)[C@@H](c3ccccc3)N2[C@@H](c2ccc(O)cc2)[C@]12C(=O)N(C(=O)OCCOC)c1ccc(C#Cc3ccc(OC)cc3)cc12 and give its measured composite z-score.
0.58

Query COC(=O)[C@]1(Cc2ccccc2CN=[N+]=[N-])N=C(c2ccc(OCCCO)cc2)O[C@@H]1c1ccccc1N=[N+]=[N-] next
0.425

Next compound up: COC(=O)C(CC#Cc1ccc2c(c1)[C@]1(C(=O)N2)[C@H](C(=O)NC[C@H](O)c2ccccc2)[C@H]2C(=O)O[C@H](c3ccccc3)[C@H](c3ccccc3)N2[C@@H]1c1ccc(O)cc1)C(=O)OC
0.0123

###

- Tested on: glycogen synthase kinase-3 (GSK3A per assay name; protocol says GSK3B)
- measurementNotes: GSK3 binders on small-molecule microarrays, primary screen, biochemical, small-molecule microarray, 635 nm fluorescence, GSK3A (AID 1103); note: the record names both GSK3A and GSK3B
- appliedConditions: small-molecule microarray binding, fluorescence 635 nm; higher = more signal
readoutType: composite z-score
// print number alone

Example entries begin here.
molecule	testValue
O=C1O[C@H](c2ccccc2)[C@H](c2ccccc2)N2[C@H]1[C@@H](C(=O)Nc1nc3ccccc3s1)[C@]1(C(=O)Nc3ccccc31)[C@H]2c1ccccc1OCCO	0.901
O=C1OCC=C[C@H]2OC34C=CCN(Cn5nnc6ccccc65)C(=O)[C@H]3N(CCO)C(=O)[C@@H]4[C@@H]12 (stereo partly specified)	-1.02

Recorded composite z-score for C[C@]1(C(=O)NC2CC2)c2ccccc2C(=O)N(Cc2cc(F)cc(C(F)(F)F)c2)[C@H]1c1ccc(CO)cc1 , please?
-1.08

Same question, C=CCNC(=O)[C@H]1[C@@H]2C(=O)O[C@@H](c3ccccc3)[C@@H](c3ccccc3)N2[C@@H](c2ccc(O)cc2)[C@]12C(=O)Nc1ccccc12 this time
-0.471

###

- System: XIP peptide (Xip251-270) binding
- measurementNotes: small-molecule binders of XIP peptide, primary screen, biochemical, small-molecule microarray, fluorescence 635/667 nm, 0.1 µg/mL protein (AID 1182)
- appliedConditions: fluorescent protein binding, 635 nm, higher = more signal, called active from +8 up or from −8 down
Rule: composite z-score under 0.3 gives Criterion not met, otherwise Criterion met.

molecule	groupLabel
O=C1N(Cc2ccccc2)Cc2ccccc2C[C@@]12COC(c1ccc(OCCCO)cc1)=N2	Criterion met
Cc1ccc(S[C@]2(C(=O)NCC(C)C)CC(=O)N(C(C)C)[C@@H]2c2ccc(CO)cc2I)cc1	Criterion met
COC(=O)[C@@]1(Cc2ccc(F)cc2)[C@H]2c3cc(C(=O)N(C)C)n(CCF)c3C[C@H]2CN1C(=O)c1ccccc1	Criterion met
COc1ccc([Si](C)(C)[C@H]2[C@H](CC(=O)N3CCC[C@H]3CO)O[C@@]3(C(=O)N(Cc4cccc(N5CCCCC5=O)c4)c4ccccc43)[C@@H]2C)cc1	Criterion met

Consider the record given below.
Is it the case that [N-]=[N+]=NCc1ccccc1[C@H]1OC(c2ccc(OCCCO)cc2)=N[C@@]1(CCS(=O)(=O)c1ccccc1)C(=O)O has composite z-score reaching or exceeding 0.3?
Criterion not met

###

- systemUnderTest: Left-right determination factor 2 (Homo sapiens)
- measurementNotes: LEFTY2 binders on small-molecule microarrays, primary screen, biochemical, small-molecule microarray, 635 nm fluorescence scan (AID 1110)
- appliedConditions: LEFTY2 binding, higher = more signal
Measured composite z-score of individual entries
Please respond with just the number, no unit label.

compound	composite z-score
C=C(CCCC)C(=O)CC[C@H](OC(=O)c1ccccc1-c1ccccc1C(=O)O)c1cccc(OCCO)c1	0.0292
C=CCNC(=O)[C@H]1[C@@H]2C(=O)O[C@@H](c3ccccc3)[C@@H](c3ccccc3)N2[C@@H](c2ccc(OCCO)cc2)[C@]12C(=O)N(C(=O)OCCOC)c1ccc(C#CCC(C(=O)OC)C(=O)OC)cc12	0.158
COC(=O)[C@@]1(Cc2ccc(F)cc2)[C@H]2c3cc(C(=O)N(C)C)n(Cc4cccc5ccccc45)c3C[C@H]2CN1C(=O)c1ccccc1	-0.856
C[N+](C)(C)CCCC[C@@H]1NC(=O)[C@H]2C[C@@H](C(=O)NCCCCCN)[C@@H](c3ccc(O)cc3)N2C1=O	1.34
C=CCC(OC(C)=O)[C@@H]1[C@@H](N(Cc2ccc(-c3ccccc3)cc2)C(=O)Cc2ccc(OC)cc2)c2cc(OCCCO)ccc2N1C(=O)Cc1ccc(OC)cc1 (some centres undefined)	0.055
CCCCCN1CC=CC23O[C@@H]4/C=C\CCCOC(=O)C4[C@H]2C(=O)N(CCCCCO)[C@@H]3C1=O (some centres undefined)	-1.08
O=C(O)C1=CC[C@H]2C(=O)N(c3ccccc3)C(=O)[C@@H]12	0.412
C=C(C(=O)CC[C@H](OC(=O)c1ccccc1-c1ccccc1C(=O)O)c1ccc(OCCO)cc1)C(C)C	0.0164

// next item, composite z-score requested
Please report the recorded composite z-score for COc1cccc(C)c1NC(=O)O[C@H]1[C@H](OC(=O)Nc2ccccc2)[C@@H](OC(=O)Nc2ccccc2)[C@@H](OC)O[C@@H]1CO .
0.508
